Molecular target: TDP-43 (Homo sapiens, UniProt Q13148 1-414)
Sequence (Q13148 whole entry): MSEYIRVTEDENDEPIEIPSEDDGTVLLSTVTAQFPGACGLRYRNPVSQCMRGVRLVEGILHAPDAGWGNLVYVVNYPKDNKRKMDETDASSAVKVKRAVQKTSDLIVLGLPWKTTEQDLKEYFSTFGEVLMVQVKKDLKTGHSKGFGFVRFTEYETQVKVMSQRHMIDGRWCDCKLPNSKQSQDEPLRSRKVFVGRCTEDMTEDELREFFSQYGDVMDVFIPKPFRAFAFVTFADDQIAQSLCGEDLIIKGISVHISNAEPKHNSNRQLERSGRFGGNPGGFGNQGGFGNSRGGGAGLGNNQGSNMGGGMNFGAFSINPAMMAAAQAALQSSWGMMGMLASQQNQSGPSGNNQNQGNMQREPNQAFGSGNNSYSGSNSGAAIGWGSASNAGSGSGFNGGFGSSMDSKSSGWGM
Assay: RNA Bind-n-Seq with designed 260-mer pool; 25 mM Tris-HCl, 150 mM KCl, 3 mM MgCl2, BSA (printed 500 mg/mL), 20 units/mL SUPERase IN; pH not stated; 500 nM RNA pool, 1 h, 4 C; TDP-43 5, 50, 500 nM; high values mean tight binding
Settings: protein: recombinant; tags: SBP (GST cleaved off with PreScission; pGEX-GST-SBP)
In all, about 9,900 sequences were measured (“r (bound/input frequency ratio)”: median about 0.7, highest 2% from about 6.5 on). The sample as a whole holds a higher share of the highest values than the screen did.
Reported binding signal values for a set of binders
VALUE_TYPE: binding signal

BINDER	RESULT_VALUE
ENSMUSG00000028439.174|Fam219a|3:22;27:34;37:46;49:58;60:64;66:82;84:101;111:118 (ssRNA) RNA: GGGAGUUCUACAGUCCGACGAUCGCUUCGAUAUCCGCAUGCUAUGCAUACCAUACCAUACCAUACCACAACACACACCAACACACACACCCACACACACACCCACACCCACACACAUACACACACCCACACACACACACACACAUGUACCCGACACACACAUGAGCCUAUCUGUCCAGGGAACCAGAUUGGUGUCCGAGAUGAGGAAAUGGCUGUGGCCUGGGAAAUCAGUGAGAGGCCGCUUGGGAAUGAGAAUGCAGUGGACUGAAAGCACAGCCUGGCCAUCUGGAACCUGGGUUCUGGUCUCUUGCGGUCGCACUAGUGUGGAAUUCUCGGGUGUCAAGG	1.59 R (bound/input frequency ratio)
ENSMUSG00000061578.806|Ksr2 (ssRNA) RNA: GGGAGUUCUACAGUCCGACGAUCGCUUCGAUAUCCGCAUGCUACCUCUCUCCAAUCUUUACCUUUGCCUCUACUAGAUGAUCUUGCAUCUGUCUUUGUGGGACUCUUUUUAUGAGGAACCAGUCCUGUUGAAUCGGGGUGCUCUGUAUUAGUUAUUUUUGUAACUUGUGAUUGUAACCAAAUGCCCGAUAGAAACAGCAUUCUGGCUCACAGUUUCAAAGGGCUCAGUCCAUAGCUGCCUGACUCUGUGUUUCUAGGCCUUUCUUGAGGCAAGUGUUCAUCAUGAUAGUGUGAGGGUGAGGAGCUCUUGCGGUCGCACUAGUGUGGAAUUCUCGGGUGUCAAGG	0.325 R (bound/input frequency ratio)
ENSMUSG00000090935.714|Synj2bp (ssRNA) RNA: GGGAGUUCUACAGUCCGACGAUCGCUUCGAUAUCCGCAUGCUAAGAGCUCUGCUCUCUGAGCAUCUGCCCCAGAUACAGAGGCAGAGUAUGAAGUGGAACAUUGUUUUAUUCCUAGGUGCUCAGGACAGACUGAUCAACCUCCAGUAACAUAUGUGGUUAGUAAGUGCUUCAGCUUGUGUAGCCAUUAAUAACCAAGUCAUAGGAUUGUGAAUCUAAAAUACUCCUGGGUAAAAUUUGUAUUAGAAUGGAAAAAAAAAUGAGGGUCAGAAAGGUGAGCUAACUUCAAGUUAGAUACUCCCCUCCUCUUGCGGUCGCACUAGUGUGGAAUUCUCGGGUGUCAAGG	1.22 R (bound/input frequency ratio)
ENSMUSG00000031028.274|Tub (ssRNA) RNA: GGGAGUUCUACAGUCCGACGAUCGCUUCGAUAUCCGCAUGCUAAAAAAGUAGAGUCAUGUAGAGUCAUGCUUUGAAUAUGUGGGUCAUGCUUUAGAUAUGAAGAGGCUAUGCAGGUAAGGAGGCUGGAUUGAUGUAAAUGGAAGUAGUACUUUAAGAAAGCUCUAGAUUUCCCAGGUUGGACACUCGACGAAAGGCACACCUGCUGCAGCAGGUUCUGACACACCUGAGCCAUACAUUGCCAUCAGAGAACCCUCAGCGAGGUAGCCUUUGUUUACAGUCUAGUUUCUAGAGGGCAGUAGGACCUCUUGCGGUCGCACUAGUGUGGAAUUCUCGGGUGUCAAGG	0.687 R (bound/input frequency ratio)
ENSMUSG00000028439.172|Fam219a (ssRNA) RNA: GGGAGUUCUACAGUCCGACGAUCGCUUCGAUAUCCGCAUGCUAUAUGGUAUGGUAUGGUAUGGUAUGGUAUGGUAUGCACAUGUGUGUGCAUGUGUGUGUGCCUGUGUGUGUGCGUGUGCGUGUGUGUAUGUGUGUGCGUGUGUGUGUGUGUGUGUUGUACCCGAGUGUGUGUUGAGCCUAUCUGUCCAGGGAACCAGAUUGGUGUCCGAGAUGAGGAAAUGGCUGUGGCCUGGGAAAUCAGUGAGAGGCCGCUUGGGAAUGAGAAUGCAGUGGACUGAAAGCACAGCCUGGCCAUCUGGAACCUCUUGCGGUCGCACUAGUGUGGAAUUCUCGGGUGUCAAGG	6.41 R (bound/input frequency ratio)
ENSMUSG00000028439.175|Fam219a (ssRNA) RNA: GGGAGUUCUACAGUCCGACGAUCGCUUCGAUAUCCGCAUGCUAGGUAUGGUAUGGUAUGCACAUGUGUGUGCAUGUGUGUGUGCCUGUGUGUGUGCGUGUGCGUGUGUGUAUGUGUGUGCGUGUGUGUGUGUGUGUGUUGUACCCGAGUGUGUGUUGAGCCUAUCUGUCCAGGGAACCAGAUUGGUGUCCGAGAUGAGGAAAUGGCUGUGGCCUGGGAAAUCAGUGAGAGGCCGCUUGGGAAUGAGAAUGCAGUGGACUGAAAGCACAGCCUGGCCAUCUGGAACCUGGGUUCUGGUCCCAGCCUCUUGCGGUCGCACUAGUGUGGAAUUCUCGGGUGUCAAGG	7.42 R (bound/input frequency ratio)
ENSMUSG00000061578.43|Ksr2|85:91;96:100 (ssRNA) RNA: GGGAGUUCUACAGUCCGACGAUCGCUUCGAUAUCCGCAUGCUAAGCCACAGACUGAGCACACCACCUCGGACUGUGGAGACCAAGACACAUGCCCAGUGGGCAGACUCAGACUCACACGCUGGACCACACACACCGCAACACACUACACAUGGACAGGGCCAACUGCUAUCCUUCUGCCUGGACGAGCCAGCUGUGGAGUGUCCCAGCUGUGCUAUCCUGGAACACAGAACCAGGAUGGAACCAGAAACAAUACACCUGCUCCGUUGUCAAGGCUUCUAGGCCAAGGUCAGGGUAGGGAGGUGCUCUUGCGGUCGCACUAGUGUGGAAUUCUCGGGUGUCAAGG	0.525 R (bound/input frequency ratio)
